study-system: T1, human C4a (human, UniProt P0C0L4 680-756)
T1 construct: domain: C4a
T1 sequence (looked up): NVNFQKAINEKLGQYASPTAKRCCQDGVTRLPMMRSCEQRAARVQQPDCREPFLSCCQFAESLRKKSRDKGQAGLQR
assay-explanation: Octet analysis

- binder: "BNJ350 (antibody, V domains shown, also called BNJ350 humanized anti-C5a antibody) VH: QVQLVQSGAEVKKPGASVKVSCKASGYTFTDYSMDWVRQAPGQGLEWVGAINPNSGGTNYSQKFKDRVTITADESTSTAYMELSSLRSEDTAVYYCARSGSYDGYYAMDYWGQGTTVTVSS VL: DIVMTQSPDSLAVSLGERATINCRASESVDSYGNSFMHWYQQKPGQPPKLLIYRASNLESGVPDRFSGSGSGTDFTLTISSLQAEDVAVYYCQQSNEDPYTFGGGTKVEIKR"
  binding result: "no binding"
- binder: "BNJ345 (antibody, V domains shown, also called BNJ345 humanized anti-C5a antibody) VH: QVQLVQSGSELKKPGASVKVSCKASGYTFTDYSMDWVRQAPGQGLEWMGAIHLNTGYTNYNQKFKGRVTITADESTSTAYMELSSLRSEDTAVYYCARGFYDGYSPMDYWGQGTTVTVSS VL: DIVMTQSPDSLAVSLGERATINCRASESVDSYGNSFMHWYQQKPGQPPKLLIYRASNLESGVPDRFSGSGSGTDFTLTISSLQAEDVAVYYCQQSNEDPYTFGGGTKVEIKR"
  binding result: "no binding"

Cited source for all entries: patent US20130224187A1
